Experiment: Half life in rat liver microsomes
Type: ADME, Microsome
value.type: half-life
Answer with the figure and its unit, nothing else.

half-life reading for CCN1C(=O)C(c2cc(-c3cn[nH]c3)c(O)cc2O)C(=O)N(c2ccccc2)c2cc(C(F)(F)F)ccc21 (stereo not drawn) : 15 min

half-life reading for CCCn1cc(-c2cc(C3C(=O)N(CC)c4ccc(C(F)(F)F)cc4N(c4ccccc4)C3=O)cc(OC)c2O)cn1 (stereo not drawn) : 67 min

half-life reading for CCN1C(=O)C(c2cc(-c3cnn(C)c3)c(O)cc2O)C(=O)N(c2ccccc2)c2cc(C(F)(F)F)ccc21 (stereo not drawn) : 11 min

###

Target: Cytochrome P450 3A4 (Homo sapiens, UniProt P08684)
Sequence (P08684 whole entry): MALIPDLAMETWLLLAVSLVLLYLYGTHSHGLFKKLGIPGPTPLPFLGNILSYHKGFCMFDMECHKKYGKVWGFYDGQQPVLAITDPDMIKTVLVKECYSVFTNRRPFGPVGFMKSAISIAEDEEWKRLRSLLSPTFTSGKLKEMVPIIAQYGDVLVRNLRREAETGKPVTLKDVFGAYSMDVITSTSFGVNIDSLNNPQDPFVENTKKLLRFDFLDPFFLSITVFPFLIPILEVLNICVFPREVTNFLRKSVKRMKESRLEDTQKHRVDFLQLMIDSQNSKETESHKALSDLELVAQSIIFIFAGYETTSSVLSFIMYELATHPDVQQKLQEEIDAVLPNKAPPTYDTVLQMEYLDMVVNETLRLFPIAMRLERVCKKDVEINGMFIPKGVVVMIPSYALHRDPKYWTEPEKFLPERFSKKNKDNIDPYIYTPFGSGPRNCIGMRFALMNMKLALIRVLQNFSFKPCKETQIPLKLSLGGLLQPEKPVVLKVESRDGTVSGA
Assay: Inhibition of CYP3A4 (unknown origin)
Assay type: ADME
value.type: INH (µM)
Report the figure in µM without appending any unit label.

INH reading for CCN1C(=O)C(c2cc(-c3cnn(C)c3)ccc2O)C(=O)N(c2ccccc2)c2cc(C(F)(F)F)ccc21 (stereo not given) : 1.7

INH reading for CCN1C(=O)C(c2ccc(O)c(-c3cnn(C)c3)c2)C(=O)N(c2ccccc2)c2cc(C(F)(F)F)ccc21 (stereo not given) : 5.7

INH reading for CCN1C(=O)C(c2cc(-c3cn[nH]c3)c(O)cc2O)C(=O)N(c2ccccc2)c2cc(C(F)(F)F)ccc21 (stereo not given) : 4.8

INH reading for CCCn1cc(-c2cc(C3C(=O)N(CC)c4ccc(C(F)(F)F)cc4N(c4ccccc4)C3=O)cc(OC)c2O)cn1 (stereo not given) : 3.6

INH reading for CCN1C(=O)C(c2cc(-c3cnn(C)c3)c(O)cc2O)C(=O)N(c2ccccc2)c2cc(C(F)(F)F)ccc21 (stereo not given) : 4.5
